System: waterhemp (common waterhemp, Amaranthus rudis)
Experimental details: Test C postemergence
Format: in vivo
Test conditions: Amaranthus tuberculatus, post-emergence; Postemergence, 62 g ai/ha, scale 0 to 100; read-out: Plant response rating, Waterhemp
Experimental readout: pest or weed control at 62 g/ha (%)

Compound: N#Cc1cccc(Oc2ncc(Cl)cn2)c1Oc1ncc(C(F)(F)F)cn1 [Compound 38]
Assay system: waterhemp (common waterhemp, Amaranthus rudis)
Recorded number: 85
//
Compound: N#Cc1cccc(Oc2ncc(Cl)cn2)c1Oc1cnc(Cl)cn1 [Compound 32]
Assay system: waterhemp (common waterhemp, Amaranthus rudis)
Recorded number: 85
//
Compound: N#Cc1cccc(Oc2ncc(C(F)(F)F)cn2)c1Oc1ncc(Cl)cn1 [Compound 39]
Assay system: waterhemp (common waterhemp, Amaranthus rudis)
Recorded number: 85
//
Compound: Fc1cccc(Oc2ncc(Cl)cn2)c1Oc1ncc(C(F)(F)F)cn1 [Compound 43]
Assay system: waterhemp (common waterhemp, Amaranthus rudis)
Recorded number: 80
//
Compound: N#Cc1cccc(Oc2ncc(Cl)cn2)c1Oc1ncc(Cl)cn1 [Compound 3]
Assay system: waterhemp (common waterhemp, Amaranthus rudis)
Recorded number: 75
//
Compound: Fc1cccc(Oc2ncc(Cl)cn2)c1Oc1ccc(Cl)nc1 [Compound 20]
Assay system: waterhemp (common waterhemp, Amaranthus rudis)
Recorded number: 90
//
Compound: Fc1cnc(Oc2c(F)cccc2Oc2ncc(Cl)cn2)nc1 [Compound 23]
Assay system: waterhemp (common waterhemp, Amaranthus rudis)
Recorded number: 75
//
Compound: Fc1cccc(Oc2ncc(Cl)cn2)c1Oc1ncc(Br)cn1 [Compound 27]
Assay system: waterhemp (common waterhemp, Amaranthus rudis)
Recorded number: 75

* * *

Test system: blackgrass (Alopecurus myosuroides)
Experimental details: Test A postemergence
Type: in vivo
Test conditions: Alopecurus myosuroides, post-emergence, 240 h, 125 g ai/ha, 0 to 100 scale, read-out: Plant response rating, Blackgrass
Here, each record is paired with measured pest or weed control at 125 g/ha data.

Smiles str: Fc1ccc(F)c(Oc2ncc(Cl)cn2)c1Oc1ncc(Cl)cn1
pest or weed control at 125 g/ha / %: 70
//
Smiles str: N#Cc1cccc(Oc2ncc(F)cn2)c1Oc1ccc(Br)cn1
pest or weed control at 125 g/ha / %: 80
//
Smiles str: N#Cc1cccc(Oc2ncc(Cl)cn2)c1Oc1ccc(Cl)cn1
pest or weed control at 125 g/ha / %: 70
//
Smiles str: Fc1cccc(Oc2ncc(Cl)cn2)c1Oc1ncc(C(F)(F)F)cn1
pest or weed control at 125 g/ha / %: 90
//
Smiles str: N#Cc1cccc(Oc2ncc(Cl)cn2)c1Oc1ccc(Cl)cc1
pest or weed control at 125 g/ha / %: 40
//
Smiles str: N#Cc1cccc(Oc2ncc(Br)cn2)c1Oc1ccc(Br)cn1
pest or weed control at 125 g/ha / %: 50
//
Smiles str: N#Cc1cccc(Oc2ncc(Cl)cn2)c1Oc1ncc(Br)cn1
pest or weed control at 125 g/ha / %: 100
//
Smiles str: Fc1cccc(Oc2ncc(C(F)(F)F)cn2)c1Oc1ncc(Cl)cn1
pest or weed control at 125 g/ha / %: 90
//
Smiles str: FCc1cccc(Oc2ncc(Cl)cn2)c1Oc1ncc(Cl)cn1
pest or weed control at 125 g/ha / %: 80
//
Smiles str: N#Cc1cccc(Oc2ncc(Cl)cn2)c1Oc1ccccc1Cl
pest or weed control at 125 g/ha / %: 0
//
Smiles str: N#Cc1cccc(Oc2ncc(Cl)cn2)c1Oc1ncc(C(F)(F)F)cn1
pest or weed control at 125 g/ha / %: 90

Origin of measurements: patent US20170190671A1
